Data origin, for the record: PubChem BioAssay (NCI)

system: M14 melanoma; assay: NCI-60 one-dose screen, 48 h (100 = growth as untreated, 0 = no growth, -100 = all killed); settings: 10 µM unless noted
About 83,000 compounds went through this panel and 20% of them were active in at least one assay; those are over-represented in the sample as a whole.
EXPERIMENTAL READOUT: growth (%)
Give just the number in %; leave the unit off.

Use the examples below as a reference point.
1. CN(C)c1cnccn1 : 97.5
2. O=C1NC(=S)S/C1=C\N1N=C(c2ccc(Cl)cc2)CC1c1ccc(F)cc1 (stereo unspecified) : 87.7
3. O=C(/C=C/C12c3ccccc3C(c3ccccc31)C1C(=O)N(c3ccccc3)C(=O)C12)c1ccccc1 (stereo unspecified) : 14.7

Prompt: Quick one: growth for COc1ccc(N=c2nc3sc4cc(Cl)ccc4n3c(N)c2C#N)cc1 ?
Response: 70.6

---

test system: ACHN renal; test: NCI-60 one-dose screen, 48 h (100 = growth as untreated, 0 = no growth, -100 = all killed); conditions: 10 µM unless noted
This is part of a sample that, as a whole, favours compounds with a hit. Of some 83,000 tested, about 20% had one in any assay.
Rule: growth below -60% gives Condition met. Equal to or above -60% gives Condition not met.

Answered cases to consult:
1) O=C(Nc1ccc(N2CCCCC2)c(Cl)c1)c1ccc(Br)o1 : Condition not met
2) CN(C)CCCCNc1ccc(NCCCCN(C)C)c2c1C(=O)c1c(O)ccc(O)c1C2=O : Condition met
3) CC(C)CCC[C@@H](C)[C@H]1CCC2C3=CCn4c(=O)ccc(=O)n4C3CC[C@@]21C (stereo partly specified) : Condition met
4) CCOC(=O)C(O)C(O)(c1ccccc1)c1ccccc1 (stereo unspecified) : Condition not met

Attention now turns to another entry.
Prompt: Strictly below -60%: is that where growth of CN(C)c1cnccn1 sits?
Response: Condition not met

---

Attribute: growth
tested on: HOP-62 NSCLC; test: NCI-60 one-dose screen, 48 h (100 = growth as untreated, 0 = no growth, -100 = all killed); details: 10 µM unless noted
About 83,000 compounds went through this panel and 20% of them were active in at least one assay; those are over-represented in the sample as a whole.
Give just the number in %; leave the unit off.

Prompt: // lookup growth | system=HOP-62 NSCLC | key= COc1cc(C2CC(=O)Nc3n[nH]c(-c4ccccc4)c32)cc(OC)c1OC (stereo not drawn)
Response: 58

Prompt: // lookup growth | system=HOP-62 NSCLC | key= CN(C)c1ccc2cc(-c3ccccc3F)c(N)nc2c1
Response: 37.4

Prompt: // lookup growth | system=HOP-62 NSCLC | key= Cc1cnc(Nc2ccc(N3CCN(C)CC3)cc2)nc1Nc1ccc(Cl)c(NS(=O)(=O)C(C)(C)C)c1
Response: 14.1

---

test system: OVCAR-3 ovarian; assay: NCI-60 one-dose screen, 48 h; conditions: 10 µM unless noted
Compounds without any hit were thinned out: in the full panel of roughly 83,000, 20% have a hit. The source made the active and inactive calls. Rule for the calls: active = growth percent below 10; inactive = the rest.
Please state which outcome applies, choosing from class 1 for active, class 0 for inactive

Answered cases to consult:
1. COc1ccc(OC)c(/C=C2\COc3ccc(O)cc3C2=O)c1 : class 0
2. CCCn1nc(-c2ccccc2)c2c(-c3ccccc3)onc2c1=O : class 0
3. COc1ccc(NC(=O)c2cccc(-c3cc(=O)c4c(O)c(OC)c(OC)cc4o3)c2)cc1 : class 0
4. O=C(O)c1ccccc1C(=O)Nc1ccc(Cl)cc1 : class 0
5. CCCCNC(=O)c1cc(NCc2cc(O)ccc2O)ccc1O : class 0

Prompt: Test call, this compound: COc1ccc(-c2cc(-c3cc(OC)ccc3O)[nH]c(=O)c2C#N)cc1
Response: class 0

Prompt: Test call, this compound: COc1ccc(-c2nc3ncccn3c2/C=C/C(=O)c2cc(OC)c(OC)c(OC)c2)cc1
Response: class 1

Prompt: Test call, this compound: N=C(N)c1ccc(-c2ccc(/C=C/c3ccccc3)s2)cc1
Response: class 1

---

test system: TK-10 renal; experiment: NCI-60 one-dose screen, 48 h (100 = growth as untreated, 0 = no growth, -100 = all killed); settings: 10 µM unless noted
About 83,000 compounds went through this panel and 20% of them were active in at least one assay; those are over-represented in the sample as a whole.
EXPERIMENTAL READOUT: growth (%)
Give just the number in %; leave the unit off.

1) O=C(NC1CCOCC1)c1ccc2c(c1)CN(c1ncc(Cc3cccc(-n4cccn4)c3)s1)CC2 : 81.7
2) COc1ccc(Oc2nc(Nc3ccc(N4CCCCC4)nc3)ncc2NC(=O)c2cc(OC)cc(OC)c2)cc1 : 75.5

Prompt: Quick one: growth for C=C(C)[C@@H]1CC[C@]2(C(=O)NCC(=O)O)CC[C@]3(C)[C@H](CC[C@@H]4[C@@]5(C)Cc6c([nH]c7ccccc67)C(C)(C)[C@@H]5CC[C@]43C)[C@@H]12 ?
Response: 103

Prompt: Quick one: growth for COc1cc(NC(=O)c2cccc(-c3cc(=O)c4c(O)c(OC)c(OC)cc4o3)c2)cc(OC)c1OC ?
Response: 74.8

Prompt: Quick one: growth for CCOC(=O)c1sc(-c2ccc(OS(=O)(=O)c3ccc(C(C)(C)C)cc3)c(C=O)c2)nc1C ?
Response: 55.8

Prompt: Quick one: growth for NC(=S)c1csc(CCNC(=O)c2ccccc2)n1 ?
Response: 107

Prompt: Quick one: growth for CCCCNCC(=O)Nc1ccc(C(=O)OCC)cc1 ?
Response: 96.1

Prompt: Quick one: growth for O=C(O)C1C[C@](O)(c2ccc(F)cc2)[C@@H](c2ccc(F)cc2)O1 (some centres not stated) ?
Response: 108

Prompt: Quick one: growth for CCN(CC)c1ccc(Nc2ccc(CC(=O)c3ccccc3)cc2)cc1 ?
Response: 107

Prompt: Quick one: growth for N=C(N)c1ccc(-c2ccc(-c3ccc(Cl)cc3Cl)o2)cc1 ?
Response: 30.5

Prompt: Quick one: growth for O=C(Nc1ccccn1)[C@H](O)[C@@H](O)C(=O)N1CCOCC1 ?
Response: 96.2

Prompt: Quick one: growth for N#C/C(=C\c1ccc2c(c1)OCO2)n1nnc2ccccc21 ?
Response: 28.3

---

tested on: CCRF-CEM leukemia; assay: NCI-60 one-dose screen, 48 h; conditions: 10 µM unless noted
Compounds without any hit were thinned out: in the full panel of roughly 83,000, 20% have a hit. Calls of active or inactive are those of the source. The calls were made as follows: active = growth percent below 10; inactive = the rest.
Please state which outcome applies, choosing from active, inactive

Answered cases to consult:
1. CCCc1cc(=O)oc2c3c(c4c(c12)OC(C)(C)C=C4)O[C@@H](C)[C@H](C)C3=O : inactive
2. C=C1C(=O)O[C@H]2[C@H]1CC/C(C(=O)NCCCCCCCCNC(=O)/C1=C/CC[C@@]3(C)O[C@H]3[C@H]3OC(=O)C(=C)[C@@H]3CC1)=C\CC[C@@]1(C)O[C@@H]21 : active
3. COC(=O)CNC(=O)C(=O)c1c(O)c(O)c(C(C)C)c2cc(C)c(-c3c(C)cc4c(C(C)C)c(O)c(O)c(C(=O)C(=O)NCC(=O)OC)c4c3O)c(O)c12 : inactive
4. O=C(Nc1ccccc1)c1sc(-c2cccc(C(F)(F)F)c2)cc1O : inactive
5. CC(C)CCC[C@@H](C)[C@H]1CCC2C3=CCn4c(=O)ccc(=O)n4C3CC[C@@]21C (stereo partly specified) : active

Prompt: Test call, this molecule: C[C@@H]1C(=O)N(C[C@H](Cc2ccccc2)NC(=O)OCc2ccccc2)[C@]1(Cc1ccccc1)C(=O)OC(C)(C)C
Response: inactive

Prompt: Test call, this molecule: CCCCCCNCc1cc(C(C)(C)C)cc(CNCCCCCC)c1O
Response: active

Prompt: Test call, this molecule: CN(C)CCn1cc(-c2ccc3c(Nc4ccc(CC(=O)Nc5cccc(F)c5)cc4)ncnc3c2)cn1
Response: active

---

System: BT-549 breast
Experiment: NCI-60 one-dose screen, 48 h
Settings: 10 µM unless noted
Experimental: Growth inhibition of the BT-549 human tumor cell line is measured as a screen for anti-cancer activity. Cells are grown in 96 well plates and exposed to the test compound for 48 hours. Compounds are tested at a single concentration, which is 10^-5 M for most compounds. The reported endpoint is percent growth (GI% or GIPRCNT), where numbers from 0 - 100% represent growth inhibition, and numbers from -100% - 0 represent cell death. For example, a value of 40 represents 60% growth inhibition. […]
This is part of a sample that, as a whole, favours compounds with a hit. Of some 83,000 tested, about 20% had one in any assay. The source made the active and inactive calls. How the source made its calls: active means growth percent below 10; inactive means the rest.
Please state which outcome applies, choosing from true for active, false for inactive

Answered cases to consult:
1) Cl.Fc1c[c-]c(-c2ccccn2)c(F)c1.[Pt].c1ccc(P(c2ccccc2)C([PH+](c2ccccc2)c2ccccc2)[PH+](c2ccccc2)c2ccccc2)cc1 : false
2) COc1cc(-c2ncn(/C=C\c3nnco3)n2)cc(C(F)(F)F)c1 : true
3) C[C@H]1[C@H]2C3=CC[C@@H]4[C@@]5(C)C/C(=C/c6ccncc6)C(=O)C(C)(C)[C@@H]5CC[C@@]4(C)[C@]3(C)CC[C@@]2(C(=O)N2CCN(C)CC2)CC[C@@H]1C : false
4) COc1ccc(-c2nc3ccccn3c2/C=C/C(=O)c2cc(OC)c(OC)c(OC)c2)cc1 : false
5) C[C@@H]1CC[C@@H]2[C@@H]1[C@H](OC(=O)/C=C/c1ccccc1)[C@]1(CCCOCCOCCOCCOC(=O)CCCC[C@@H]3SC[C@@H]4NC(=O)N[C@@H]43)C[C@@H](OC(=O)CO)[C@@]2(C)O1 : false

Prompt: Test call, this compound: O=C(NCc1cn(Cc2cccc(Oc3ccccc3)c2)nn1)c1cccnc1NCc1ccc(Cl)cc1
Response: false
